Tested on: Abutilon theophrasti (ABUTH)
Assay: Pre-emergence Test (glasshouse, percentage damage to the plant)
Assay type: in vivo
Settings: 1000 g/ha unless otherwise stated, five-point scale
PROPERTY NAME: percentage damage to the plant, ABUTH

Some compounds with recorded percentage damage to the plant, ABUTH:
compound_structure_string=CCn1c(C)c(-c2ccc(Cl)cc2Cl)c(=O)c(C(=O)O)c1-c1ccc(Cl)cc1 value_observed="2 (2=21-40%)"
compound_structure_string=CCn1c(C)c(-c2ccc(F)c(F)c2)c(=O)c(C(=O)O)c1-c1ccc(Cl)c(Cl)c1 value_observed="2 (2=21-40%)"
compound_structure_string=CCOC(=O)c1c(-c2ccc(Br)cc2F)n(CC)c(C)c(-c2ccc(Cl)cc2)c1=O value_observed=0

# per-item lookup of percentage damage to the plant, ABUTH; items listed below
1. CCn1c(C)c(-c2ccc(Cl)c(C(=O)NC3CC3)c2)c(=O)c(C(=O)O)c1-c1ccc(Cl)c(Cl)c1
2. CCn1c(C)c(-c2cc(F)cc(F)c2)c(=O)c(C(=O)O)c1-c1ccc(Cl)c(Cl)c1
3. CCn1c(C)c(-c2cnccn2)c(=O)c(C(=O)O)c1-c1ccc(Cl)cn1

[reply]
1: 1 (1=0-20%); 2: 3 (3=41-60%); 3: 0

Give me percentage damage to the plant, ABUTH for each of these compounds, listed below.
1. CCn1c(C)c(-c2cccc(OC)n2)c(=O)c(C(=O)O)c1-c1ccc(Cl)c(Cl)c1
2. CCn1c(C)c(-c2ccc(Cl)cc2)c(=O)c(C(=O)O)c1-c1ccc(Cl)cn1

[reply]
["3 (3=41-60%)", 0]

====

Test system: Zea mays (ZEAMX)
Experiment: Pre-emergence Test (glasshouse, percentage damage to the plant)
Format: in vivo
Conditions: 1000 g/ha unless otherwise stated, five-point scale
I'd appreciate it if you could supply percentage damage to the plant, ZEAMX values for the items below.

compound_structure_string=CCn1c(C)c(-c2cccc(OC)c2F)c(=O)c(C(=O)O)c1-c1ccc(Cl)cc1 property_name="percentage damage to the plant, ZEAMX" value_observed=0
compound_structure_string=CCn1c(C)c(-c2cc(OC)ccc2F)c(=O)c(C(=O)O)c1-c1ccc(Cl)cc1 property_name="percentage damage to the plant, ZEAMX" value_observed=0
compound_structure_string=CCn1c(C)c(-c2ccc(C#N)cc2)c(=O)c(C(=O)O)c1-c1ccnc(Cl)c1 property_name="percentage damage to the plant, ZEAMX" value_observed=0
compound_structure_string=CCn1c(C)c(-c2cnc3c(c2)OC(F)(F)O3)c(=O)c(C(=O)O)c1-c1ccc(Cl)c(Cl)c1 property_name="percentage damage to the plant, ZEAMX" value_observed="1 (1=0-20%)"
compound_structure_string=CCn1c(C)c(-c2cccc(OCC(F)(F)F)c2)c(=O)c(C(=O)O)c1-c1ccc(Cl)c(Cl)c1 property_name="percentage damage to the plant, ZEAMX" value_observed="1 (1=0-20%)"

Field: percentage damage to the plant, ZEAMX. Fill in for each record below.
1. CCn1c(C)c(-c2cccc(C(F)F)c2)c(=O)c(C(=O)O)c1-c1ccc(Cl)c(Cl)c1
2. CCn1c(C)c(-c2ccc(OC)c(Cl)c2)c(=O)c(C(=O)O)c1-c1ccc(Cl)c(Cl)c1
3. CCn1c(C)c(-c2ccc(Cl)cc2C)c(=O)c(C(=O)O)c1-c1ccc(Cl)c(Cl)c1
4. CCn1c(C)c(-c2ccc(Cl)cc2)c(=O)c(C(=O)O)c1-c1ccc(Cl)cn1

[reply]
1 (1=0-20%)
2 (2=21-40%)
0
0
